test system: Leishmania donovani; experiment: Leishmania intramacrophage assay; type: functional, organism-based; set-up: scale not given: in the data most compounds retested in dose-response had high values; conditions: 30.3 µM; […]
Among all 69,000 compounds or so, about 1,000 (1.4%) showed an effect of 50% or more. Only a selection was taken, and strong results are over-represented in it overall.
Attribute: Percent Effect
QUANTITY: Percent Effect

INSERT INTO results (compound, test_system, result) VALUES
  ('O=C(CC1CCCC1)N1CCCC1c1ccc(CN2CCOCC2)cn1 (centres undefined)', 'Leishmania donovani', '7.793%'),
  ('COCCOCC(=O)Nc1ccnn1-c1ccc(Cl)cc1', 'Leishmania donovani', '23.94%'),
  ('COc1ccc(SCC2CNc3nc4ccccc4c(=O)n32)cc1 (centres undefined)', 'Leishmania donovani', '24.33%'),
  ('COCC1CN(C(=O)Nc2cc(-n3cccc3)ccc2F)CCO1 (centres undefined)', 'Leishmania donovani', '7.734%'),
  ('Cc1ncsc1CN1CC(C)(C2CC2)CC1=O (centres undefined)', 'Leishmania donovani', '-1.864%'),
  ('CC(C)(C)c1cc(CN2C[C@H]3CC[C@@H]2CN(Cc2cscn2)C3)n[nH]1', 'Leishmania donovani', '99.99%'),
  ('c1cnc(N2CCN(Cn3nccc3-c3cccnc3)CC2)nc1', 'Leishmania donovani', '61.02%'),
  ('COCC(=O)Nc1ccnn1-c1ccc(Cl)cc1', 'Leishmania donovani', '82.71%'),
  ('Cc1nnc(SCc2cc(=O)n3c4c(sc3n2)CCCC4)[nH]1', 'Leishmania donovani', '36.41%'),
  ('CC(C)(C)CCN1CCN(Cn2nccc2-c2cccnc2)CC1', 'Leishmania donovani', '14.91%'),
  ('CC(C)CS(=O)(=O)Nc1ccc2c(c1)OCC(C)(C)C(=O)N2C', 'Leishmania donovani', '-17.18%'),
  ('Cc1nn(C)cc1C(=O)NCc1cc(N(C)C)nc2ccccc12', 'Leishmania donovani', '27.45%'),
  ('CCOCc1cnc2n1CCN(C(=O)Cc1ccco1)C2C (centres undefined)', 'Leishmania donovani', '17.38%'),
  ('O=C(O)C(F)(F)F.O=C1[C@H]2CN(CC3CCOCC3)C[C@H]2CN1Cc1cccc(F)c1', 'Leishmania donovani', '2.876%');
